Test system: SK-MEL-2 melanoma
Test: NCI-60 one-dose screen, 48 h (100 = growth as untreated, 0 = no growth, -100 = all killed)
Details: 10 µM unless noted
The panel holds about 83,000 compounds, 20% with a hit somewhere; the sample as a whole holds those more often.
growth values, listed per item
READOUT_NAME: growth (%)

O=C(O)c1cccc(-c2ccc(/C=N/NC(=O)c3[nH]c4ccc(Br)cc4c3-c3ccccc3)o2)c1	61.4
CCCSc1nc(NCCc2c[nH]c3ccccc23)c(C#N)c(-c2ccc(F)cc2)n1	92
CN(C)CCn1c2ccccc2c2nc3cc(C(F)(F)F)ccc3nc21	56.4
CN(C)CCOc1ccc(C(=O)C2[C@H](c3ccc(Cl)cc3)[C@@H](c3ccccc3)NC23C(=O)Nc2ccc(Br)cc23)cc1 (stereo not given in full)	54.1
O=C1CCCc2cc(OCC(=O)N3CCCCC3)ccc2N1	111

* * *

Tested on: HCT-15 colon
Assay: NCI-60 one-dose screen, 48 h
Details: 10 µM unless noted
The panel holds about 83,000 compounds, 20% with a hit somewhere; the sample as a whole holds those more often. Active and inactive are the calls of the source. How the source made its calls: active means growth percent below 10; inactive means the rest.
Labels: active, inactive

COc1ccc(-c2nnc3ccc(N/N=C/c4ccc(C)cc4)nn23)cc1	inactive
Cc1ccc(C(=O)CSc2nc3ccc(C)cc3c(=O)n2-c2ccc(F)cc2)cc1	inactive
Cn1cc(-c2cc3nc(-c4c[nH]c5ccc(Cl)cc45)cc(N)n3n2)c2ccccc21	active
COc1cc2oc(-c3cccc(NC(=O)[C@H](Cc4ccccc4)NC(=O)OC(C)(C)C)c3)cc(=O)c2c(OC)c1OC	inactive
O=C(COc1ccc(NC(=O)Nc2ccc(Cl)c(Cl)c2)cc1)N=Nc1c(O)[nH]c2ccc(Cl)cc12	inactive

* * *

Test system: NCI-H522 lung
Test: NCI-60 one-dose screen, 48 h
Conditions: 10 µM unless noted
About 83,000 compounds went through this panel and 20% of them were active in at least one assay; those are over-represented in the sample as a whole. Active and inactive are the calls of the source. Rule for the calls: active = growth percent below 10; inactive = the rest.
Labels: active, inactive

COc1ccc(C(=O)/C=C/c2ccc(OCc3ccccc3)c(OC)c2)cc1OC	inactive
COc1ccc(-c2cc(C(=O)NCc3ccccc3)nn2-c2ccc(S(C)(=O)=O)cc2)cc1OC	inactive
CCOc1ccc(C(=O)NC(=S)Nc2ccc(S(N)(=O)=O)cc2)cc1	inactive
Cc1cc2nc3c([nH]c2cc1C)c1ccc(=O)cc1n3CCN(C)C	inactive
COc1cccc(COc2ccc(NC(=O)Nc3ccc(Cl)c(C(F)(F)F)c3)cc2)c1	inactive
CCOC(=O)COc1c(OC)c(OC)cc2oc(-c3cccc(C(=O)Nc4ccc(Cl)cc4)c3)cc(=O)c12	inactive
COc1cc2oc(-c3cccc(C(=O)Nc4cccc([N+](=O)[O-])c4)c3)cc(=O)c2c(OC)c1OC	active
COc1ccc2c(c1)c(-c1cc3nc(-c4cn(C)c5ncccc45)cc(N)n3n1)cn2C	active
CCOC(=O)/C=C/c1cccc2c1C(=O)NC(C)(c1cc3cc(Br)ccc3oc1=O)N2 (centres undefined)	inactive

* * *

Test system: UACC-62 melanoma
Assay: NCI-60 one-dose screen, 48 h
Conditions: 10 µM unless noted
Protocol: Growth inhibition of the UACC-62 human tumor cell line is measured as a screen for anti-cancer activity. Cells are grown in 96 well plates and exposed to the test compound for 48 hours. Compounds are tested at a single concentration, which is 10^-5 M for most compounds. The reported endpoint is percent growth (GI% or GIPRCNT), where numbers from 0 - 100% represent growth inhibition, and numbers from -100% - 0 represent cell death. For example, a value of 40 represents 60% growth inhibition. […]
The panel holds about 83,000 compounds, 20% with a hit somewhere; the sample as a whole holds those more often. Activity calls are given as the source filed them. Rule for the calls: active = growth percent below 10; inactive = the rest.
Labels: class 1 for active, class 0 for inactive

CN1CCN(c2ccc3c(c2)nc(NNC(=O)c2ncccn2)c2cccn23)CC1	class 1
O=C(Cn1c2c(sc1=O)[C@H]1[C@@H](O)[C@@H](O)[C@H](O)[C@@H]1CS2)N1CCOCC1	class 0
CCN(CC)c1ccc(/C=N/Nc2nc(-c3ccc(C)cc3)cs2)c(O)c1	class 0
COc1ccc(-c2nc(SCC(C)C)nc(NCCc3c[nH]c4ccccc34)c2C#N)cc1	class 0
Cc1ccc(S(=O)(=O)c2nc(S(=O)(=O)c3ccc(C)cc3)c(N3CCC(O)CC3)s2)cc1	class 0
COc1cc(-c2nc3ccc(C)cc3[nH]2)ccc1OCc1nnc(-c2ccc(Br)cc2)o1	class 0
Cc1cc2nc3c4ccccc4n(CC4=NCCN4)c3nc2cc1C	class 1
COc1ccc(C(=O)/C=C/c2cccc(Cl)c2Cl)cc1S(N)(=O)=O	class 0
COc1cc2c(c(OC)c1OC)C(=O)CC(c1cccc(NC(=O)c3cc([N+](=O)[O-])ccc3Cl)c1)O2 (stereo not drawn)	class 0
N#Cc1ccc(/C=N/NC(=O)c2[nH]c3ccc(Br)cc3c2-c2ccccc2)o1	class 0
CC(C)C(C(=O)O)n1c(O)c(/C=C2/C=c3cc4c(cc3=NC2=O)OCO4)sc1=S (stereo not drawn)	class 0
COc1cc2oc(-c3cccc(C(=O)Nc4ccc(Cl)cc4)c3)cc(=O)c2c(OCCNC(=O)[C@@H](N)CCC(=O)O)c1OC	class 0
CCN1CCN(Cc2ccc(C(=O)Nc3cccc(C#Cc4cccc5[nH]nc(N)c45)c3)cc2C(F)(F)F)CC1	class 1
COc1ccc(C(=O)/C=C/c2cccc3ccccc23)cc1S(N)(=O)=O	class 1
O=C(CSc1nc2ccccc2c(=O)[nH]1)NCCN1CCCCC1	class 0
CCN(CC)CCOc1ccc(Nc2ncc3cc(-c4ccc(O)c(C#N)c4)c(=O)n(C)c3n2)cc1	class 0
O=C(c1ccc(OCCN2CCOCC2)cc1)C1[C@H](c2ccc(Cl)cc2)[C@@H](c2ccccc2)NC12C(=O)Nc1ccc(Cl)cc12 (stereo partly drawn)	class 0
Cc1ccc(C2CC(c3ccc(S(=O)(=O)NCCNc4nc(Nc5ccc(F)cc5)nc(N(C)C)n4)cc3)=Nc3c(N)nc(N)nc3N2)cc1 (stereo not drawn)	class 0

* * *

Tested on: M14 melanoma
Test: NCI-60 one-dose screen, 48 h
Conditions: 10 µM unless noted
Compounds without any hit were thinned out: in the full panel of roughly 83,000, 20% have a hit. Active and inactive are the calls of the source. Rule for the calls: active = growth percent below 10; inactive = the rest.
Labels: TRUE = active, FALSE = inactive

O=C(/C=C/c1cccc(OCc2ccccc2)c1)c1nc2ccccc2[nH]1	TRUE
Cc1occc1C(=O)NN1C(=O)/C(=C/C=C/c2ccc([N+](=O)[O-])o2)SC1=S	TRUE
COc1cc(CNC(=O)/C=C/c2ccc3c(c2)OCO3)ccc1OCc1cn(-c2ccc([N+](=O)[O-])cc2)nn1	FALSE
COc1ccc(NC(=O)Cn2c(/C=C/c3cccc([N+](=O)[O-])c3)nc3ccccc3c2=O)cc1	FALSE
CN(C)c1nc(NCCNS(=O)(=O)c2ccc(C(=O)/C=C/c3ccc(Cl)cc3)cc2)nc(Nc2ccc(F)cc2)n1	TRUE
COc1cc(-c2nc3cc(Cl)c(Cl)cc3[nH]2)ccc1OCc1nnc(-c2cccs2)o1	FALSE
Cn1cc(-c2nc(N)nnc2-c2c[nH]c3ccc(Br)cc23)c2cc(Br)cnc21	TRUE
O=C(COc1ccc(NC(=O)Nc2ccc(Cl)c(Cl)c2)cc1)N=Nc1c(O)[nH]c2ccc([N+](=O)[O-])cc12	FALSE

* * *

Tested on: SF-539 CNS
Experiment: NCI-60 one-dose screen, 48 h (100 = growth as untreated, 0 = no growth, -100 = all killed)
Conditions: 10 µM unless noted
About 83,000 compounds went through this panel and 20% of them were active in at least one assay; those are over-represented in the sample as a whole.
READOUT_NAME: growth (%)

NS(=O)(=O)c1ccc(-n2cc(-c3cccc(NC(=O)c4cc(C(F)(F)F)cc(C(F)(F)F)c4)c3)nn2)cc1	35.1
C/C(=N\Nc1ccc(S(N)(=O)=O)cc1)c1ccc(N=Nc2c(Nc3ccccc3)[nH][nH]c2=O)cc1	-77.4
Cn1nc(C(F)(F)F)cc1-c1cc(Cl)c(COc2ccc(Cl)cc2)c(-c2ccc(Cl)c(C(F)(F)F)c2)c1O	-77.9
COc1ccc(NC(=O)[C@@H](N)Cc2ccccc2)cc1C(=O)Nc1cccc(C2CC(=O)c3c(cc(OC)c(OC)c3OC)O2)c1 (some centres not stated)	82.4
Cc1nc(Nc2ncc(C(=O)Nc3c(C)cccc3Cl)s2)cc(N2CCN(CCCNC(=O)COc3ccc(C4CCC(=O)NC4=O)cc3)CC2)n1 (configuration not stated)	7.74
Cn1cc(-c2cc(N)n3nc(-c4cn(C)c5ccc(Cl)cc45)cc3n2)c2ccccc21	105
COc1ccc(C2CC(c3ccc(S(=O)(=O)NCCNc4nc(Nc5ccc(F)cc5)nc(N(C)C)n4)cc3)=Nc3c(N)nc(N)nc3N2)cc1 (configuration not stated)	75.4
CCCCCCCS(=O)(=O)N1CCCC(C(=O)Nc2nc3ccc(NC(=O)c4ccc(F)c(OC)c4F)cc3s2)C1 (configuration not stated)	25.8
O=C(O)c1ccc(-c2ccc(/C=N/NC(=O)c3[nH]c4ccc(Br)cc4c3-c3ccccc3)s2)cc1	1.96
COc1cc2c(c(OC)c1OC)C(=O)CC(c1cccc(NC(=O)c3cc(N)ccc3Cl)c1)O2 (configuration not stated)	56.6
COc1ccc(C2=NN(c3ccccc3)C(c3ccc(OCc4ccccc4)c(OC)c3)C2)cc1OC (configuration not stated)	98.7
CCOc1ccc(-c2c(C#N)c(-c3ccc(Cl)cc3)nc3n[nH]c(-c4ccc(Cl)cc4)c23)cc1OC	62.6
CC1CCCCN1CCCNC(=O)N/C(N)=N/c1nc2ccccc2s1 (configuration not stated)	-60.9
CCCCOc1ccc(NC(=O)c2sc3nc(C)ccc3c2N)cc1	-99.7
N/N=C(\N)c1c(N)nc(=S)[nH]c1-c1ccc(Cl)cc1Cl	94.6
O=C(NN1C(=O)/C(=C/C=C/c2ccc([N+](=O)[O-])o2)SC1=S)c1cccc(O)c1	-100
C=C1CC[C@@H]2[C@]3(C)COC(c4cn[nH]c4-c4cccc(Cl)c4)O[C@@H]3CC[C@@]2(C)[C@@H]1C/C=C1/C(=O)OCC1O (some centres not stated)	-89.8
